Experiment: Heparin binding activity by liquid chromatography on Hi Trap Heparin HP column (NaCl elution)
Details: step gradient 500-1000 mM NaCl in 10 mM NaH2PO4 pH 7
reportedProperty: [NaCl] for elution (mM)
Answer in mM, number only, no unit symbol.

Previously resolved entries follow.
[
  {
    "sequenceString": "RRGRAAKKKRRGRAAKKKPSQSSHPPLSTA (listed as Homo sapiens) [ST100,072]",
    "[NaCl] for elution [mM]": 1000
  },
  {
    "sequenceString": "RAAKKRKRAAKKRARAAKKRLGYVVSDGRGDYP (RAAKKRARAAKKRARAAKKRLGYVVSDGRGDYP; listed as Homo sapiens) [ST100,079]",
    "[NaCl] for elution [mM]": 1000
  },
  {
    "sequenceString": "RRGRAAKKKRRGRAAKKK (listed as Homo sapiens) [ST100,082]",
    "[NaCl] for elution [mM]": 1000
  },
  {
    "sequenceString": "RRGRAAKKKRRGRAAKKKRLGYVVSDGRGDYP [ST100,074]",
    "[NaCl] for elution [mM]": 1000
  }
]

Turning now to a further record.
RLGYVVSDGRGDYPKKKRRGRAARRGRAA [ST100,065] has a reported [NaCl] for elution of 750
